ED50 by entry:
# Test system: Male Wiga Wistar rats
# assayExplanation: Reversal of LY-404039-induced decrease of palpebral opening in apomorphine-challenged rats
# Format: in vivo, rat
# conditionDetails: Rattus norvegicus; rats, route PO (route cell empty for Co. 88 and 84); read-out: ED50 APO LY-404039 (Reversal of LY-404039-induced decrease of palpebral opening in apomorphine challenged rats)
# Method: 1) Reversal of LY-404039-Induced Decrease of Palpebral Opening in Apomorphine-Challenged Rats. Male Wiga Wistar rats (Crl:WI; Charles River Germany; 220±40 g) were housed under standard laboratory conditions (21±2° C.; 50-65% relative humidity; light-dark cycle set at 12 h; lights on at 6.00 h) and fasted overnight prior to the start of the experiments (tap water remained available ad libitum). During the test period, they were housed in individual cages. […]

{"compoundStructureString": "Cc1cc(N2C[C@H](C)n3ncc(C(=O)Nc4ccccn4)c3C2=O)ccc1C(F)(F)F", "ED50": "> 10 mg/kg"}
{"compoundStructureString": "COc1cncc(NC(=O)c2cnn3c2C(=O)N(c2ccc(C(F)(F)F)c(C)c2)C[C@@H]3C)c1", "ED50": "> 0.63 mg/kg"}
{"compoundStructureString": "C[C@H]1CN(c2ccc(C(F)(F)F)cc2)C(=O)c2c(C(=O)Nc3ccccn3)cnn21", "ED50": "> 2.5 mg/kg"}
{"compoundStructureString": "C[C@H]1CN(c2ccc(Cl)c(Cl)c2)C(=O)c2c(C(=O)Nc3ccccn3)cnn21", "ED50": "> 10 mg/kg"}
{"compoundStructureString": "C[C@H]1CN(c2ccc(C(F)(F)F)c(F)c2)C(=O)c2c(C(=O)Nc3ccccn3)cnn21", "ED50": "> 2.5 mg/kg"}

###

# system: human mGlu2 receptor (Homo sapiens)
# Sequence (Q14416 19-872): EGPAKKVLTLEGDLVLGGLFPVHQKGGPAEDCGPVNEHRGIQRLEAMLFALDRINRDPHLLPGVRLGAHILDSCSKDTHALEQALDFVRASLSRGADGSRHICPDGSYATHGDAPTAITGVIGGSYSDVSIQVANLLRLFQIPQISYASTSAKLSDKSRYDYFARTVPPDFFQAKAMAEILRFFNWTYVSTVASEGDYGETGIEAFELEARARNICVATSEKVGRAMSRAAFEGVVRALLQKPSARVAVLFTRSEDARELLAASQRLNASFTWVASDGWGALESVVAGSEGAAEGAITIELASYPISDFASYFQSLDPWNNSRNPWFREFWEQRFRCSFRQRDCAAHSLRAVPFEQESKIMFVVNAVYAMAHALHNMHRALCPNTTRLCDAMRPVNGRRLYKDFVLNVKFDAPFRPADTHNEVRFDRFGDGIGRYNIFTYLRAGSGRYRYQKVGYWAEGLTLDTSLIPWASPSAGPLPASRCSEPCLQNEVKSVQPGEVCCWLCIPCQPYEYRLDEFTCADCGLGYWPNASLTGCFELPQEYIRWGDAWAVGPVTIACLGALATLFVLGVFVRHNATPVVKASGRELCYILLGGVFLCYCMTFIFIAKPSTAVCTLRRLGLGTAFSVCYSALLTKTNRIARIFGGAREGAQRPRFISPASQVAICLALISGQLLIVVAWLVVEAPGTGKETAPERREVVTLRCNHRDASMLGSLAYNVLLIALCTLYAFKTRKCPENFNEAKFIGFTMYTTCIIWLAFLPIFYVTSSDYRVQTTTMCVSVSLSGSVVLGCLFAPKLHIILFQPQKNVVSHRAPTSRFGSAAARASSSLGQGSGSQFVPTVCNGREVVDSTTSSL
# assayExplanation: [35S]GTPγS binding assay, mGluR2 negative allosteric modulation (membranes from CHO cells transfected with human mGlu2 receptor, glutamate ~EC80 60 μM);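 also: membranes preincubated 30 min at 30 °C with compound plus glutamate, then [35S]GTPγS (0.1 nM) incorporation measured over another 30 min at 30 °C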
# conditionDetails: relative maximal effect: maximal % inhibition relative to the control glutamate response

{"compound": "C[C@H]1CN(c2ccc(C(F)(F)F)c(CF)c2)C(=O)c2c(C(=O)Nc3cccnc3)cnn21 [compound 53]", "GTPγS - hmGluR2 anGT Emax": "114%"}
{"compound": "C[C@H]1CN(c2ccc(Cl)c(Cl)c2)C(=O)c2c(C(=O)Nc3cccnc3)cnn21 [compound 26]", "GTPγS - hmGluR2 anGT Emax": "107%"}
{"compound": "Cc1cccc(NC(=O)c2cnn3c2C(=O)N(c2ccc(C(F)(F)F)cc2)C[C@@H]3C)n1 [compound 17]", "GTPγS - hmGluR2 anGT Emax": "107%"}
{"compound": "COc1ccc(NC(=O)c2cnn3c2C(=O)N(c2ccc(C(F)(F)F)cc2)C[C@@H]3C)nc1 [compound 102]", "GTPγS - hmGluR2 anGT Emax": "112%"}
{"compound": "Cc1cc(NC(=O)c2cnn3c2C(=O)N(c2ccc(C(F)(F)F)cc2)C[C@@H]3C)cc(C)n1 [compound 101]", "GTPγS - hmGluR2 anGT Emax": "118%"}
{"compound": "Cc1cc(N2C[C@H](C)n3ncc(C(=O)Nc4ccc(F)cn4)c3C2=O)ccc1C(F)(F)F [compound 110]", "GTPγS - hmGluR2 anGT Emax": "107%"}
{"compound": "C[C@H]1CN(c2ccc(Cl)c(Cl)c2)C(=O)c2c(C(=O)Nc3ccc(F)nc3)cnn21 [compound 56]", "GTPγS - hmGluR2 anGT Emax": "104%"}
{"compound": "COCC1CN(c2ccc(C(F)(F)F)c(Cl)c2)C(=O)c2c(C(=O)Nc3cccnc3)cnn21 (single isomer, unassigned) [compound 156]", "GTPγS - hmGluR2 anGT Emax": "107%"}
{"compound": "C[C@H]1CN(c2ccc(Cl)c(Cl)c2)C(=O)c2c(C(=O)Nc3cncc(F)c3)cnn21 [compound 27]", "GTPγS - hmGluR2 anGT Emax": "108%"}
{"compound": "Cc1cc(NC(=O)c2cnn3c2C(=O)N(c2ccc(C(F)(F)F)c(Cl)c2)C[C@@H]3C)ccn1 [compound 109]", "GTPγS - hmGluR2 anGT Emax": "109%"}
{"compound": "C[C@H]1CN(c2ccc(C(F)(F)F)c(F)c2)C(=O)c2c(C(=O)Nc3cccnc3)cnn21 [compound 21]", "GTPγS - hmGluR2 anGT Emax": "108%"}
{"compound": "COCc1cc(NC(=O)c2cnn3c2C(=O)N(c2ccc(C(F)(F)F)cc2)C[C@@H]3C)ccn1 [compound 149]", "GTPγS - hmGluR2 anGT Emax": "104%"}
{"compound": "COCC1CN(c2ccc(C(F)(F)F)cc2)C(=O)c2c(C(=O)Nc3cccnc3)cnn21 (single isomer, unassigned) [compound 158]", "GTPγS - hmGluR2 anGT Emax": "108%"}
{"compound": "Cc1cc(NC(=O)c2cnn3c2C(=O)N(c2ccc(Cl)c(Cl)c2)C[C@@H]3C)cc(C)n1 [compound 118]", "GTPγS - hmGluR2 anGT Emax": "105%"}
{"compound": "COCC1CN(c2ccc(C(F)(F)F)cc2)C(=O)c2c(C(=O)Nc3cnccn3)cnn21 (single isomer, unassigned) [compound 154]", "GTPγS - hmGluR2 anGT Emax": "113%"}
{"compound": "Cc1cncc(NC(=O)c2cnn3c2C(=O)N(c2ccc(Cl)c(Cl)c2)C[C@@H]3C)c1 [compound 28]", "GTPγS - hmGluR2 anGT Emax": "107%"}
{"compound": "COc1cccc(NC(=O)c2cnn3c2C(=O)N(c2ccc(C(F)(F)F)cc2)C[C@@H]3C)n1 [compound 105]", "GTPγS - hmGluR2 anGT Emax": "108%"}

###

Output 1 (yes) for records whose melting point is lower than 200 °C, 0 (no) for records at or above 200 °C.

{"compoundStructureString": "Cc1cc(NC(=O)c2cnn3c2C(=O)N(c2ccc(Cl)cc2)C[C@@H]3C)ccn1", "labelClass": "1 (yes)"}
{"compoundStructureString": "C[C@H]1CN(c2ccc(Cl)c(Cl)c2)C(=O)c2c(C(=O)Nc3ccc(F)cn3)cnn21", "labelClass": "1 (yes)"}
{"compoundStructureString": "C[C@H]1CN(c2ccc(C(F)(F)F)cc2)C(=O)c2c(C(=O)Nc3ccncc3)cnn21", "labelClass": "1 (yes)"}
{"compoundStructureString": "C[C@H]1CN(c2ccc(C(F)(F)F)cc2)C(=O)c2c(C(N)=O)cnn21", "labelClass": "0 (no)"}
{"compoundStructureString": "C[C@H]1CN(c2ccc(C(F)(F)F)cc2)C(=O)c2c(C(=O)Nc3ccncn3)cnn21", "labelClass": "0 (no)"}

###

Where a name gives a salt, the structure may show the parent alone.

{"molecule": "C[C@H]1CN(c2ccc(OC(F)(F)F)c(Cl)c2)C(=O)c2c(C(=O)Nc3cccnc3)cnn21", "resultUnit": "°C", "melting point": 145.36}
{"molecule": "Cc1cc(NC(=O)c2cnn3c2C(=O)N(c2ccc(C(F)(F)F)c(CF)c2)C[C@@H]3C)ccn1", "resultUnit": "°C", "melting point": 141.3}
{"molecule": "COc1cnccc1NC(=O)c1cnn2c1C(=O)N(c1ccc(C(F)(F)F)cc1)C[C@@H]2C", "resultUnit": "°C", "melting point": 200.8}
{"molecule": "COc1cncc(NC(=O)c2cnn3c2C(=O)N(c2ccc(C(F)(F)F)c(Cl)c2)C[C@@H]3C)c1C", "resultUnit": "°C", "melting point": 185.94}
{"molecule": "COc1nc(N2C[C@H](C)n3ncc(C(=O)Nc4ccccc4)c3C2=O)ccc1Cl", "resultUnit": "°C", "melting point": 203.08}
{"molecule": "Cc1cc(NC(=O)c2cnn3c2C(=O)N(c2ccc(Cl)c(C)c2)C[C@@H]3C)cc(C)n1", "resultUnit": "°C", "melting point": 178.1}
{"molecule": "C[C@H]1CN(c2ccc(C(F)(F)F)cc2)C(=O)c2c(C(=O)Nc3cncc(F)c3)cnn21 (as salt: HCl) [13a]", "resultUnit": "°C", "melting point": 146.4}
{"molecule": "Cc1cc(CNC(=O)c2cnn3c2C(=O)N(c2ccc(C(F)(F)F)cc2)C[C@@H]3C)ccn1", "resultUnit": "°C", "melting point": 148.8}
{"molecule": "Cc1c(F)cncc1NC(=O)c1cnn2c1C(=O)N(c1ccc(C(F)(F)F)c(F)c1)C[C@@H]2C", "resultUnit": "°C", "melting point": 186.35}
{"molecule": "Cc1c(F)cncc1NC(=O)c1cnn2c1C(=O)N(c1ccc(Cl)c(Cl)c1)C[C@@H]2C", "resultUnit": "°C", "melting point": 211.11}
{"molecule": "Cc1cc(NC(=O)c2cnn3c2C(=O)N(c2ccc(C(F)(F)F)cc2)C[C@@H]3C)ccn1", "resultUnit": "°C", "melting point": 215}
{"molecule": "Cc1ncccc1NC(=O)c1cnn2c1C(=O)N(c1ccc(C(F)(F)F)cc1)C[C@@H]2C", "resultUnit": "°C", "melting point": 171.6}

Source listed as patent US20200121677A1.
